test system: DNA gyrase (Escherichia coli), P0AES6+P0AES4 [UNDEFINED MUTATION]; assay: Inhibition of Escherichia coli JMtacA/JMtacB DNA gyrase subunit A2B2 S83W mutant using relaxed pBR322 DNA as substrate incubated for 30 mins in presence of ATP by ethidium bromide staining based agarose gel electrophoresis; format: protein-complex assay
The source made the active and inactive calls. The rule behind the calls is not given here.
Permitted responses: Y for active, N for inactive

How did this test come out for CCOC(=O)c1cn(C2CC2)c2cc(N3CCN(C(=O)CCCCCCCCC(=O)Nc4ccccc4)CC3)c(F)cc2c1=O ?
N

Follow-up entry: CCOC(=O)c1cn(C2CC2)c2cc(N3CCN(C(=O)CCCCCCCCC(=O)Nc4cc5ccccc5oc4=O)CC3)c(F)cc2c1=O
N

Follow-up entry: CCOC(=O)c1cn(C2CC2)c2cc(N3CCNCC3)c(F)cc2c1=O
Y

Follow-up entry: CCOC(=O)c1cn(C2CC2)c2cc(N3CCN(C(=O)CCCCCCCCC(=O)OC)CC3)c(F)cc2c1=O
N

FYI, the data here is from ChEMBL document CHEMBL4431297.
